Source of measurements: the supplement of paper PMC10724198

test system: Saccharomyces cerevisiae; assay: protein stability index of tFT-peptide fusion (C-terminal peptide) (PSI (0-1 scale)); higher = more stable (slower turnover); conditions: genetic background: doa10 deletion; temperature: 30 C;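 further: PSI is a weighted mean of sequencing reads over stability bins, variants kept only with over 10 reads, mCherry proximal and sfGFP distal, peptide attached via GGGS linker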
# cutoff 0.3 applies to protein stability index; >= gives Condition met, < gives Condition not met

Inquiry: Is protein stability index at least 0.3? Consider "CFVQVGGLVKIS"
Reply text: Condition not met

Inquiry: Does protein stability index meet or surpass 0.3 for "GGYGAGLRSPLF" ?
Reply text: Condition met

Inquiry: In plain terms: is recorded protein stability index at least 0.3 for "DFVFFLVSVRFR" ?
Reply text: Condition not met

Inquiry: I'd appreciate it if you could say whether "IFCRCNSTVLLI" has protein stability index at least equal to 0.3.
Reply text: Condition met

Inquiry: Is protein stability index at least 0.3? Consider "YTQKFTFYGLPA"
Reply text: Condition met

Inquiry: Has "FCFLLLSWAFWV" a recorded protein stability index greater than or equal to 0.3?
Reply text: Condition not met

Inquiry: Tell me whether protein stability index is at least 0.3 here: "VAGGFWCWGMVG"
Reply text: Condition met

Inquiry: Check this sequence for protein stability index at or above 0.3: "VLLCGRMVVVEW"
Reply text: Condition not met

Inquiry: Check the entry "FALPPSLLLLSA" : does protein stability index equal or exceed 0.3?
Reply text: Condition met

Inquiry: Please tell me: is the sequence "GVVWPLGWVWVE" at or over 0.3 in terms of protein stability index?
Reply text: Condition met

Inquiry: # check: protein stability index of "LSGVLFSLIRFY" is greater than or equal to 0.3
Reply text: Condition not met

Inquiry: Given "LVPLSLLLCFFV" , state whether its protein stability index is at least 0.3.
Reply text: Condition not met

Inquiry: Please check the record "SFFCFFLSFFYL" and state if its protein stability index is at or above 0.3.
Reply text: Condition met

Inquiry: Identify whether the reported protein stability index of the following sequence is 0.3 or greater: "QPTPQSALAKHQ"
Reply text: Condition met

Inquiry: protein stability index >= 0.3 for "YLFFSCIFTFSC" ?
Reply text: Condition not met

Inquiry: Evaluate "GLLLLGIRLKWG" : protein stability index at minimum 0.3?
Reply text: Condition not met

Inquiry: Has "NLFVFLSYLFNV" a recorded protein stability index greater than or equal to 0.3?
Reply text: Condition met

Inquiry: In plain terms: is recorded protein stability index at least 0.3 for "KMKGLINKRKES" ?
Reply text: Condition not met

Inquiry: Could you please find out whether "GVQFSVKWVKLG" has protein stability index that meets 0.3 or exceeds it?
Reply text: Condition not met

Inquiry: Threshold query (protein stability index >= 0.3) on "FKWVSRIRLLDA"
Reply text: Condition not met

Inquiry: Check if protein stability index >= 0.3 (inclusive). Item: "IACISCLLCVVV"
Reply text: Condition met

Inquiry: Determine whether measured protein stability index meets or exceeds 0.3 for "GSVHLTKERHLV"
Reply text: Condition not met

Inquiry: // inclusive: protein stability index at least 0.3? input: "IVVSSRFLGFFC"
Reply text: Condition not met

Inquiry: Exam item: decide whether the reported protein stability index for "LLCLLLVPQPHR" is at least 0.3.
Reply text: Condition met

Inquiry: Dear colleague, could you confirm whether "GVLIFLSFQPIA" has protein stability index at or above 0.3?
Reply text: Condition met

Inquiry: # check: protein stability index of "NNQIQKKMYQTN" is greater than or equal to 0.3
Reply text: Condition not met

Inquiry: Hello, I need to know if "GAVRRWGGVSFV" has measured protein stability index not below 0.3. Thanks!
Reply text: Condition met

Inquiry: Determine whether this sequence has protein stability index no lower than 0.3: "VSIRVVVWVSWG"
Reply text: Condition not met

Inquiry: In plain terms: is recorded protein stability index at least 0.3 for "TSRRPFVLVMWL" ?
Reply text: Condition met

Inquiry: Decide: protein stability index of "LCCTLFFCYSYH" >= 0.3?
Reply text: Condition met

Inquiry: Check this sequence for protein stability index at or above 0.3: "LLMCCLPFLWVF"
Reply text: Condition not met

Inquiry: For this sequence, is measured protein stability index 0.3 or higher? "FSLLTWPFVFLV"
Reply text: Condition not met

Inquiry: Reported protein stability index at or above 0.3? "DVVRWQRVRNYV"
Reply text: Condition not met

Inquiry: Please indicate if the recorded protein stability index for "FLDYLLFIFFFF" meets or exceeds 0.3.
Reply text: Condition met

Inquiry: protein stability index >= 0.3 for "MLLFVSCCVFLF" ?
Reply text: Condition not met

Inquiry: Does the reported protein stability index for "HLILWLFFVIVF" fall at or above the 0.3 mark?
Reply text: Condition not met

Inquiry: Is the recorded value of protein stability index equal to or greater than 0.3 for this sequence? "GLVVVVRLQYSP"
Reply text: Condition not met

Inquiry: Hello, I need to know if "RSFSKRSFMFLC" has measured protein stability index not below 0.3. Thanks!
Reply text: Condition not met

Inquiry: Check if protein stability index >= 0.3 (inclusive). Item: "RIAIRSAVICAS"
Reply text: Condition not met

Inquiry: Can "VVVFRWTCWLLV" be said to have protein stability index at or above 0.3?
Reply text: Condition not met

Inquiry: Hello, I need to know if "PPPLPFPTPPPS" has measured protein stability index not below 0.3. Thanks!
Reply text: Condition met

Inquiry: Determine whether this sequence has protein stability index no lower than 0.3: "EKHRRYAITKFI"
Reply text: Condition not met

Inquiry: Assess whether reported protein stability index for "SFAVSSDYLFII" sits at 0.3 or higher.
Reply text: Condition met

Inquiry: hey, is protein stability index for this one >= 0.3? "TTATLSFAICAV"
Reply text: Condition not met

Inquiry: # bool: protein stability index of "CGFVCGLCLCRV" >= 0.3
Reply text: Condition met

Inquiry: // inclusive: protein stability index at least 0.3? input: "CFFFPCFSFRFL"
Reply text: Condition met

Inquiry: Does "FLVIILFFLYMR" have a reported protein stability index of at least 0.3?
Reply text: Condition met

Inquiry: Check this sequence for protein stability index at or above 0.3: "SGRAWRLRMHVI"
Reply text: Condition not met

Inquiry: Record "FMANRYICQKTL" ; criterion: protein stability index no lower than 0.3. Met?
Reply text: Condition not met

Inquiry: Check if protein stability index >= 0.3 (inclusive). Item: "KVLLYWRHAQRQ"
Reply text: Condition met

Inquiry: Could you please find out whether "VCCSILFSAFLV" has protein stability index that meets 0.3 or exceeds it?
Reply text: Condition met

Inquiry: Hello, I need to know if "LRLEFRTNWFLQ" has measured protein stability index not below 0.3. Thanks!
Reply text: Condition not met

Inquiry: Please tell me: is the sequence "LRFYLLTPPSPA" at or over 0.3 in terms of protein stability index?
Reply text: Condition met

Inquiry: // inclusive: protein stability index at least 0.3? input: "GLLAEPALLLLS"
Reply text: Condition met

Inquiry: Does the reported protein stability index for "WLCWVVWFPGLF" fall at or above the 0.3 mark?
Reply text: Condition not met

Inquiry: # check: protein stability index of "ASLSSSRPPLLP" is greater than or equal to 0.3
Reply text: Condition met

Inquiry: Reported protein stability index at or above 0.3? "AWPGRLWYFWLA"
Reply text: Condition not met

Inquiry: Confirm if protein stability index reported for the sequence "FSFFLYFFLLLF" is 0.3 or above.
Reply text: Condition met

Inquiry: Check the entry "LSLWLFRILSVR" : does protein stability index equal or exceed 0.3?
Reply text: Condition met

Inquiry: Check if protein stability index >= 0.3 (inclusive). Item: "LPLSPPPLPSSR"
Reply text: Condition met

Inquiry: Does the reported protein stability index for "APPPLFLIVLHL" fall at or above the 0.3 mark?
Reply text: Condition met

Inquiry: Test whether the sequence "ASLVGGVLLVVV" records protein stability index of 0.3 or higher.
Reply text: Condition met

Inquiry: State whether the measured protein stability index reaches 0.3, counting equality as reaching it, for "LLSPFLLMLLFL"
Reply text: Condition not met

Inquiry: Given "VVSLAVVGRFLV" , state whether its protein stability index is at least 0.3.
Reply text: Condition not met

Inquiry: Check if protein stability index >= 0.3 (inclusive). Item: "TEHIIAFKASVN"
Reply text: Condition not met

Inquiry: Identify whether the reported protein stability index of the following sequence is 0.3 or greater: "LQLGFCFVAQFI"
Reply text: Condition met

Inquiry: Threshold query (protein stability index >= 0.3) on "PVFVLFFFSSLV"
Reply text: Condition met

Inquiry: Confirm if protein stability index reported for the sequence "VPGCLGRFLFFL" is 0.3 or above.
Reply text: Condition not met

Inquiry: Tell me whether protein stability index is at least 0.3 here: "HFLLAFMLCFGQ"
Reply text: Condition met

Inquiry: Is reported protein stability index greater than or equal to 0.3 here: "VGIFKVCALVLR"
Reply text: Condition met

Inquiry: Determine whether measured protein stability index meets or exceeds 0.3 for "VIRIRLSCSVDV"
Reply text: Condition met

Inquiry: Given the entry "ILVFHFWPFLVR" , answer whether its protein stability index meets or surpasses 0.3.
Reply text: Condition met

Inquiry: Dear colleague, could you confirm whether "ESFIKFALYIVN" has protein stability index at or above 0.3?
Reply text: Condition met

Inquiry: Given "MALAVRVVRCGA" , state whether its protein stability index is at least 0.3.
Reply text: Condition not met

Inquiry: Is protein stability index at least 0.3? Consider "ISAVLFFLYLSF"
Reply text: Condition met

Inquiry: Entry "KTDVYPVSFFTC" : is its protein stability index no less than 0.3?
Reply text: Condition not met

Inquiry: Given "NYFRPWLIFHKC" , state whether its protein stability index is at least 0.3.
Reply text: Condition not met

Inquiry: Does protein stability index meet or surpass 0.3 for "PRPLLSIYLRHA" ?
Reply text: Condition not met

Inquiry: For this sequence, is measured protein stability index 0.3 or higher? "SVVRCWVLLGVA"
Reply text: Condition not met
